target system: human GLP1R (human, UniProt P43220 24-463)
Sequence (P43220 24-463): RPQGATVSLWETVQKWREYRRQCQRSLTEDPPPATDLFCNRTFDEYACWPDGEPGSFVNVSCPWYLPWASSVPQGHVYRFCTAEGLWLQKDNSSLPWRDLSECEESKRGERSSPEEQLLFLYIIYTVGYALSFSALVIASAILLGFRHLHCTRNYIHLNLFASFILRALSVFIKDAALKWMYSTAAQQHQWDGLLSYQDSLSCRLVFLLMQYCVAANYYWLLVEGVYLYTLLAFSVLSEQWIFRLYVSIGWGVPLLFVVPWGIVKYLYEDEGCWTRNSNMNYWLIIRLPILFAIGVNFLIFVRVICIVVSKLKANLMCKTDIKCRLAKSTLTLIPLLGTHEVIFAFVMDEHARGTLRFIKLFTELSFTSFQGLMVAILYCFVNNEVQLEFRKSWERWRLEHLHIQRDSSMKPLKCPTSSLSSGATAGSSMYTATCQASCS
experiment notes: cell-based or functional assay
Square brackets hold non-standard residues; d marks the D form. Ends that are not written are not given here. * marks the point of attachment. Aib = CC(C)(N)C(=O)O; BrAc = O=C(CBr)*
measured metric: cAMP assay, GLP1R agonist mode, Emax (%)

[[record]]
binder = "H-H[Aib]EGTFTSDYSSYLE[Aib]QAAKEFIAWLVKGRGGGGGSGGGGSGGGGSK(BrAc) (not fully specified (C-terminus)) [SEQ ID NO 152: GLP1(7-37) [Aib8; Tyr16; Aib22] with GGGGS(x3)-K(BrAc) linker]"
reading = 107

[[record]]
binder = "H[Aib]EGTFTSDYSSYLEEQAAKEFIAWLVKGRGGGGGSGGGGSGGGGSK(BrAc) (not fully specified (C-terminus)) [SEQ ID NO 151: GLP1(7-37) [Aib8; Tyr16; Glu22] with GGGGS(x3)-K(BrAc) linker]"
reading = 109

[[record]]
binder = "H-H[Aib]EGTFTSDVSSYLEEQAAKEFIAWLVKGGGGGGGSGGGGSGGGGSK(BrAc) (not fully specified (C-terminus)) [SEQ ID NO 153 (Benchmark): GLP1(7-37) [Aib8; Glu22; Gly36] with GGGGS(x3)-K(BrAc) linker]"
reading = 109

[[record]]
binder = "H-H[Aib]EGTFTSDVSSYLE[Aib]QAAKEFIAWLVKGRGGGGGSGGGGSGGGGSK(BrAc) (not fully specified (C-terminus)) [SEQ ID NO 150: GLP1(7-37) [Aib8; Aib22] with GGGGS(x3)-K(BrAc) linker]"
reading = 104

